Give measured RLU for each item. Keep answers brief.
target: T1, human apical domain of CD71 (human, UniProt P02786 189-383, limits assumed); assay: primary ELISA; also: test concentration or dose not given here
T1 construct: domain: apical domain
T1 sequence (P02786 189-383 limits assumed): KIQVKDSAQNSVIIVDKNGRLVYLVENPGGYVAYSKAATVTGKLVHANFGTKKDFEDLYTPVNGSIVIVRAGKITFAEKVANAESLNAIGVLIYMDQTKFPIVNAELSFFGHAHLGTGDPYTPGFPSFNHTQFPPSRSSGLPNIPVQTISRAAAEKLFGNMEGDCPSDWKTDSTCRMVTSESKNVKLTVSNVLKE
Give bare numbers, in RLU.

# batch: return RLU for each of the 3 binders below
1. CD71-binding FN3 domain SEQ ID NO 429 (designed binder) MLPAPKNLVVSRVTEDSARLSWTAPDAAFDSFEIGYFERSFYGEAIILFVPGSERSYDLTGLKPGTEYAVWIGGVKGGVWSRPLSAIFTT
2. CD71-binding FN3 domain SEQ ID NO 413 (designed binder) MLPAPKNLVVSRVTEDSARLSWTAPDAAFDSFFIGYLEPQPPGEAIYLRVPGSERSYDLTGLKPGTEYNVTIQGVKGGFPSAPLHAHFTT
3. CD71-binding FN3 domain SEQ ID NO 378 (designed binder) MLPAPKNLVVSRVTEDSARLSWTAPDAAFDSFFIGYLEPQPPGEAIDLWVPGSERSYDLTGLKPGTEYNVTIQGVKGGFPSTPLIATVTT

RESULT:
["4.39e+06", "4.98e+06", "6.12e+06"]

# batch: return RLU for each of the 2 binders below
1. CD71-binding FN3 domain SEQ ID NO 347 (designed binder) MLPAPKNLVVSRVTEDSARLSWTAPDAAFDSFFIGYLEPQPPGEAIGLFVPGSERSYDLTGLKPGTEYNVTIQGVKGGFPSEPLKAAFTT
2. CD71-binding FN3 domain SEQ ID NO 368 (designed binder) MLPAPKNLVVSRVTEDSARLSWTAPDAAFDSFFIGYLEPQPPGEAITLTVPGSERSYDLTGLKPGTEYNVTIQGVKGGFPSGPLIASFTT

RESULT:
5.95e+06
6.23e+06

# batch: return RLU for each of the 2 binders below
1. CD71-binding FN3 domain SEQ ID NO 415 (designed binder) MLPAPKNLVVSRVTEDSARLSWTAPDAAFDSFFIGYLEPQPPGEAIHLQVPGSERSYDLTGLKPGTEYNVTIQGVKGGFPSMPLSAIFTT
2. CD71-binding FN3 domain SEQ ID NO 392 (designed binder) MLPAPKNLVVSRVTEDSARLSWTAPDAAFDSFFIGYLEPQPPGEAIHLGVPGSERSYDLTGLKPGTEYNVTIQGVKGGFPSLPLVATFTT

RESULT:
3.61e+06
3.9e+06
